- ASSAY_OVERVIEW: Half life in HIV-infected human plasma at 1500 mg
- Assay type: ADME, cell-free
QUANTITY_NAME: half-life (h)
# value in h; strip the unit string

Task: Can you look up the measured half-life of Cc1cn([C@H]2C[C@H](N=[N+]=[N-])[C@@H](CO)O2)c(=O)[nH]c1=O [ZIDOVUDINE] for me?
Output: 1

---

- ASSAY_OVERVIEW: Half life in HIV-infected human at 600 mg, po qd
- ASSAY_CONTEXT: in vivo
QUANTITY_NAME: half-life (h)
# value in h; strip the unit string

Task: Can you look up the measured half-life of Cc1cn([C@H]2C[C@H](N=[N+]=[N-])[C@@H](CO)O2)c(=O)[nH]c1=O [ZIDOVUDINE] for me?
Output: 6.3
